Answer each item with its documented growth inhibition.
assay: NCI Yeast Anticancer Drug Screen. Data for the rad50 strain (AID 155);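 note: 0% = growth of vehicle-only cultures of the same strain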; details: S. cerevisiae rad50 strain growth inhibition; at 50.0 µM; stronger effect = higher value
Compounds without any hit were thinned out: in the full panel of roughly 79,000, 15% have a hit. Where a SMILES comes first, the peptide text is derived from it. [ ]: non-standard residue; d: D form. ξ: configuration not given here. ξH = NC(Cc1c[nH]cn1)C(=O)O
Give bare numbers, in %.

# map each molecule to its growth inhibition
1. Cc1ccc(S(=O)(=O)N/N=C/c2cc([N+](=O)[O-])ccc2O)cc1
2. C=C[Si](Cl)(Cl)c1ccccc1

[5, 15.9]

# map each molecule to its growth inhibition
1. NCC(=O)NC(Cc1cnc[nH]1)C(=O)NCC(=O)O (stereo not given) (H-Gly-[ξH]-Gly-OH)
2. CCOC(=O)/C(C#N)=C/c1cc(Br)c(O)c(OC)c1

1: -3.45; 2: -12.3

----------
Answer each item with its documented growth inhibition.
assay: NCI Yeast Anticancer Drug Screen. Data for the rad50 strain (AID 155);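 note: 0% = growth of vehicle-only cultures of the same strain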; conditions: S. cerevisiae rad50 strain growth inhibition; at 50.0 µM; stronger effect = higher value
About 79,000 compounds went through this panel and 15% of them were active in at least one assay; those are over-represented in the sample as a whole.
Answers are plain numbers, in %.

compound=CC1(C)[C@H]2CC[C@@]1(C)C(=O)[C@H]2[N+](=O)[O-] outputunit=% measuredvalue=4.25

# map each compound to its growth inhibition
1. Cc1cc(O)c(C(C)C)cc1N=O
2. CC1(C)C2CC=C(CCO)C1C2 (stereo unspecified)
3. Cc1ccccc1-n1c(SCC(=O)NC(=O)Nc2cccc(Cl)c2)nc2c(Br)cc(Br)cc2c1=O
4. OC1c2ccccc2-c2ccc(Cl)cc21 (stereo unspecified)
5. O=C(COc1ccc(Cl)cc1)Nc1ccccc1Br
6. COc1ccc(C(=O)c2cc(S(=O)(=O)O)c(OC)cc2O)c(O)c1
7. O=C(/C=C/C=C/c1ccc2c(c1)OCO2)N1CCCCC1

22.2
-2.85
-22.9
23.8
11
-32.8
-1.5

----------
Assay: NCI Yeast Anticancer Drug Screen. Data for the bub3 strain (AID 167)
Settings: S. cerevisiae bub3 mutant strain, at 50.0 µM, stronger effect = higher value
Experimental: Growth inhibition of yeast strains with defined genetic alterations is measured as a screen for potential anti-cancer activity. Selected strains with alterations in DNA damage repair or cell cycle control were exposed to compounds and growth inhibition was measured relative to vehicle treated controls. The strain used in this assay is bub3
The panel holds about 79,000 compounds, 15% with a hit somewhere; the sample as a whole holds those more often.
Answer each item with its documented growth inhibition.
Numbers only, in %.

compound=COc1ccc(C(C)=C2C=C(C(C)(C)C)C(=O)C(C(C)(C)C)=C2)cc1 outputunit=% measuredvalue=1.35

# map each compound to its growth inhibition
1. CC(=O)Nc1ccccc1NC1CC(C)N(c2ccccc2)N1C(C)=O (stereo not given)
2. COc1ccc2oc3cc(NCCN(C)C)ccc3c(=O)c2c1
3. CCOCCC(C)(OCC)OCC
4. Cc1ccc(S(=O)(=O)N2CCC(C(=O)N3CCCC3)(c3cccc(C)c3)CC2)cc1
5. CC(C)(C)[Si](C)(C)OCC1OC(n2cnc3c(N)ncnc32)C(O)C1O (stereo not given)
6. COC(=O)CCOc1ccccc1
7. CC(=O)OC12CC3CCC4C(CCC5(C)C(C(C)CCCC(C)C)CCC45)C3(C)CC1O2 (stereo not given)
8. O=C1Nc2ccccc2/C1=N/N=P(c1ccccc1)(c1ccccc1)c1ccccc1

[-34.4, -19.9, -3.65, -38.5, 3.5, -8.8, 14.3, -5.8]

# map each compound to its growth inhibition
1. Cc1ccc(NC(=O)c2cc3ccccc3c(N=Nc3ccccc3O)c2O)c(C)c1
2. COC(CN(C)C(=S)Nc1cccc2ccccc12)OC
3. COc1ccc(COC(=O)NNC(=O)C2CSC(c3ccccc3)N2C(C)=O)cc1 (stereo not given)
4. CCOC(=N)CC(=O)Nc1ccccc1
5. Brc1ccc(N=N/C(=N/Nc2ccccc2)c2ccc(/C=N/Nc3ccccc3)cc2)cc1
6. O=c1cc(NCc2cccc3ccccc23)[nH]c(=O)[nH]1
7. COc1ccc(-c2c(C(=O)O)cc(O)c3cc(OC)c(OC)cc23)cc1OC
8. CC(=O)c1sc(/N=C\c2c(O)c3ccccc3oc2=O)nc1C

12.6
-6.2
-8.9
3.6
15
-0.75
3.3
-36.2

# map each compound to its growth inhibition
1. FC1(F)ON2CCc3ccccc3C2[C@H]1c1ccccc1 (stereo not given in full)
2. Cn1c2ccccc2c2c3ccc[n+](C)c3ccc21
3. CCC(CO)N1CNC(=S)NC1 (stereo not given)
4. CCCCCCCCCCCCCCCCCCNC(=O)N(C)Cc1ccccc1
5. C=CCNC(=O)CCCCCCCC1C(CCCCCCCC)C2(Cl)C(Cl)=C(Cl)C1(Cl)C2(Cl)Cl (stereo not given)

1: 22.4; 2: -0.1; 3: 4.7; 4: -1; 5: 1.75

# map each compound to its growth inhibition
1. NC(=O)Cc1ccccn1
2. CCCOC(=O)CC(=O)OCC
3. O=c1[nH]nnc2cc(Cl)ccc12

1: 5.25; 2: -7.15; 3: 2
